Source of measurements: PubChem BioAssay

Tested on: Sam68 (KHDRBS1)
Assay: Sam68 small-molecule binders, primary screen, biochemical, small-molecule microarray, 635 nm fluorescence (AID 1125);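 note: score merges 667 nm channel intensity with signal to noise over triplicate slides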
Conditions: small-molecule microarray binding, higher = more signal
Entries and their composite z-score values follow.

{"columns": ["compound", "composite z-score"],
 "data": [
  ["CCOC(=O)C[C@H]1[C@H](OC(=O)c2ccc(-c3ccccc3)cc2)[C@@H](NC(=O)Cc2ccc(OC)cc2)c2cc(OCCCO)ccc2N1C(=O)Cc1ccc(OC)cc1", 0.496],
  ["CC(C)CCC[C@@H](C)[C@H]1CC[C@@]2(C)C3=C(CC[C@]12C)[C@@]1(C)CC[C@H](OC(=O)c2ccccc2)C(C)(C)C1CC3 (stereo partly specified)", 0.248],
  ["C=CCNC(=O)[C@@H]1[C@H]2C(=O)O[C@H](c3ccccc3)[C@H](c3ccccc3)N2[C@H](c2ccc(O)cc2)[C@@]12C(=O)N(C(=O)OCCOC)c1ccc(C#CCCO)cc12", 1.29],
  ["COCC1=C2[C@@H](CCc3ccccc3)OB(O)C[C@@H]2[C@@H]2C(=O)N(C)C(=O)[C@@H]2C1", 0.106],
  ["NC(=O)[C@@H]1[C@H]2C(=O)O[C@H](c3ccccc3)[C@H](c3ccccc3)N2[C@H](c2ccc(OCCO)cc2)[C@@]12C(=O)Nc1ccc(C#CCCO)cc12", 0.837],
  ["CC(=O)N1CC(C(O)C2C=CC3C(=O)NC(=O)C3N2Nc2ccc(Cl)cc2Cl)c2ccccc21 (stereo unspecified)", 0.99]
]}

---

Target: Fibroblast growth factor 10 (Homo sapiens)
Experiment: FGF10 binders on small-molecule microarrays, primary screen, biochemical, small-molecule microarray, 635 nm fluorescence (AID 1102)
Conditions: FGF10 binding, fluorescence 635 nm, higher = more signal
attribute-measured: composite z-score

{"columns": ["smiles-notation", "target-of-assay", "attribute-measured", "observed-measurement"],
 "data": [
  ["COc1ccc([Si](C)(C)[C@H]2[C@H](CC(=O)N3CCC[C@H]3CO)O[C@@]3(C(=O)N(Cc4ccc(N5CCC5=O)cc4)c4ccccc43)[C@@H]2C)cc1", "Fibroblast growth factor 10 (Homo sapiens)", "composite z-score", 1.34],
  ["CO[C@H]1O[C@H](CO)[C@@H](OC(=O)Nc2cccc(F)c2)[C@H](OC(=O)Nc2ccccc2-c2ccccc2)[C@H]1OC(=O)Nc1ccccc1-c1ccccc1", "Fibroblast growth factor 10 (Homo sapiens)", "composite z-score", 1.46],
  ["O=c1cccc(-c2ccco2)o1", "Fibroblast growth factor 10 (Homo sapiens)", "composite z-score", 0.955],
  ["CCCC=C(CCC)[C@@H](NC(=O)CCc1ccccc1)c1ccc(C(F)(F)F)cc1", "Fibroblast growth factor 10 (Homo sapiens)", "composite z-score", 0.527]
]}

---

Tested on: Wnt5a (protein binding on small-molecule microarray)
Experiment: Wnt5a binders on small-molecule microarray, primary screen, biophysical, 635/667 nm fluorescence (AID 1142);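 note: fluorescence read at 667 nm with signal to noise per printed feature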
Details: 635 nm fluorescence, higher = more signal
attribute-measured: composite z-score

{"columns": ["molecule", "observed-measurement"],
 "data": [
  ["COc1ccc([Si](C)(C)[C@H]2[C@H](CCO)O[C@@]3(C(=O)N(Cc4ccccc4)c4ccc(N5CCOC5=O)cc43)[C@@H]2C)cc1", 0.0771],
  ["CCCCNC(=O)c1ccc(C#C[Si](C(C)C)(C(C)C)C(C)C)c(OC(C)=O)c1", 0.268],
  ["CCOC(=O)C1=CCN(S(=O)(=O)c2ccc(C)cc2)C1c1ccccc1 (centres undefined)", 0.0881],
  ["COc1cc2c(cc1O)C(c1cccs1)N(Cc1sc3ccccc3c1Cl)CC2 (centres undefined)", 0.702],
  ["O=C1NC(=O)C2C1C=CC(C(O)c1ccccn1)N2Nc1ccc(Cl)cc1Cl (centres undefined)", 0.0314],
  ["CCOC(=O)C1=C[C@@H](C(C)(C)C)N(S(=O)(=O)c2ccc(C)cc2)[C@H]1c1ccccc1", 0.251],
  ["CN1C(=O)C2C=CC(C(O)c3ccc(F)cc3)N(NC(=O)OC(C)(C)C)C2C1=O (centres undefined)", 0.155],
  ["[N-]=[N+]=Nc1ccccc1[C@@H]1OC(c2ccc(OCCCO)cc2)=N[C@]1(Cc1ccccc1)C(=O)NCc1ccccc1", 0.792],
  ["COc1cc(C(O)C2C=CC3C(=O)N(Cc4ccccc4)C(=O)C3N2n2cnnc2)cc(OC)c1OC (centres undefined)", 0.388]
]}
